Attribution: the supplement of paper PMC6755084

So I've got a bunch of variants here, and I need their fraction ligated values.
B1: F1*; the commonest letter at each place (parent)
chain: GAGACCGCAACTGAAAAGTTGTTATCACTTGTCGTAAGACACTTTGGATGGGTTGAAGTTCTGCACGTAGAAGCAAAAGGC

- Variants of: B1
- assay-details: fraction ligated after 30 min (ligated reads / total reads); higher = more ligase activity
- study-conditions: with F1*sub RNA substrate (template-directed ligation), 42 °C

Solved cases (5 shown):
{"columns": ["variant-notation", "fraction ligated"],
 "data": [
  ["A36T A39G", 0.842],
  ["T32G C42G", 0.837],
  ["C40G A41C", 0.784],
  ["A27C A57C", 0.787],
  ["T23A C26A", 0.318]
]}

Go through the items and report each one's fraction ligated.
1. A24T A37T
2. C28G T45A
3. T32C A48G
4. G31C G46C
5. T23G G38C
6. T29G G31T
7. T35G A37C
8. A24T T30A

Response:
0.786
0.558
0.75
0.732
0.808
0.835
0.868
0.67
